- assay-target: AxCT mask27 EpCAM H90.2 L041 version 1
Below is a list of entries, each paired with its recorded Percent cleavage value.
Please make sure the unit comes right after the number.

INSERT INTO assay_data (protein, quantity, observed_measurement) VALUES
  ('MMP-7 (protein) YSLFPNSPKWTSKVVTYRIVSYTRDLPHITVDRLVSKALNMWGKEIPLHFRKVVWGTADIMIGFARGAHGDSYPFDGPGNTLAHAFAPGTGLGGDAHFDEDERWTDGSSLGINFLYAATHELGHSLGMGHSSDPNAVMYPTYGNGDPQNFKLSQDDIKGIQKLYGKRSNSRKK', 'Percent cleavage', '0%');

Would you kindly share the measured Percent cleavage for Matriptase (protein) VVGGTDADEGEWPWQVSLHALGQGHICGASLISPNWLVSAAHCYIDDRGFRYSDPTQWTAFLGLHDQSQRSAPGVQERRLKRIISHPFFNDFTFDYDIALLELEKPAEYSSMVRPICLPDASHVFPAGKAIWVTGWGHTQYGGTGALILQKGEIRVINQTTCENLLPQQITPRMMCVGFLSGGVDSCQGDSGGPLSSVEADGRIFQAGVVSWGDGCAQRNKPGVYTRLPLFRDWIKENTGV ?
80%
